# target_system: DPP IV (Homo sapiens, UniProt P27487)
# Sequence (P27487 whole entry, species assumed): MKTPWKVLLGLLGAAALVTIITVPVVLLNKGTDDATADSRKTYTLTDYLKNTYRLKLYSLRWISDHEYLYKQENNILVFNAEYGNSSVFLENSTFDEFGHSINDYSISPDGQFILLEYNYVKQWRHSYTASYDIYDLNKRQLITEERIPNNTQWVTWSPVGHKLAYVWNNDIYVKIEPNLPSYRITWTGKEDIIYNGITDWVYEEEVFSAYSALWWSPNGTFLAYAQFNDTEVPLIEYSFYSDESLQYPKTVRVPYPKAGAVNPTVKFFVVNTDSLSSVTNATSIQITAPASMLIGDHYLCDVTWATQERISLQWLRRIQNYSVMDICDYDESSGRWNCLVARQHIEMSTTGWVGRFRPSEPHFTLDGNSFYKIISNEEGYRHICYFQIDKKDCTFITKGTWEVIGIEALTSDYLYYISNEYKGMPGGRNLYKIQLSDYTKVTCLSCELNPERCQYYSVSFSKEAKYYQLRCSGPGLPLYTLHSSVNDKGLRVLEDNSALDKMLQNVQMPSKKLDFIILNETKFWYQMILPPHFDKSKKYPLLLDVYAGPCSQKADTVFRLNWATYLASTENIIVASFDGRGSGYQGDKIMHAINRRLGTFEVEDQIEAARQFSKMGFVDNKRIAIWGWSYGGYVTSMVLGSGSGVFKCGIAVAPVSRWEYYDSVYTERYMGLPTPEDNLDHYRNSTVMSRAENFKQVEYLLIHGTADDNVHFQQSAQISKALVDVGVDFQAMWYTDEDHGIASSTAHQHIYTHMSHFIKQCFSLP
# protocol_details: Stability against DPP IV enzyme
# Assay type: in vitro ADME
# condition_label: DPP IV enzyme, pH 7.8, 2 μM peptidomimetic, 37° C., read-out: half-life (t1/2) when incubated with DPP-IV enzyme
observed_property: half-life at 2 μM (h)
Provide only the numeric value, understood in h.

Dear colleague, I am looking for the recorded half-life at 2 μM of the following compound: CCc1cc(OC)ccc1-c1ccc(CC(NC(=O)[C@H](CC(=O)O)NC(=O)[C@H](CO)NC(=O)[C@@H](NC(=O)[C@H](Cc2ccccc2)NC(=O)[C@@H](NC(=O)CNC(=O)[C@H](CCC(N)=O)NC(=O)C(C)(C)NC(=O)[C@@H](N)Cc2c[nH]cn2)[C@@H](C)O)[C@@H](C)O)C(=O)NC(CCCc2ccc(OC)cc2Cl)C(N)=O)cc1 (single isomer, unassigned) [compound 68]
9

###

# target_system: DPP IV (Homo sapiens, UniProt P27487)
# protocol_details: Stability against DPP IV enzyme
# Assay type: in vitro ADME
# condition_label: 2 μM peptidomimetic, 37° C., 24 h
# Procedure: Reactions were terminated by the addition of TFA/H2O (15 mL, 10% (v/v)). […] The column was equilibrated with TFA/H20, at a flow rate of 1 mL/min.
Starred links: 1 amine or outer side, 2 acyl side, 3 side chain; linkers in the order of their positions; H or OH if unused. Non-standard residues stand in square brackets, D forms with d. Residues, ends and D or L forms follow the SMILES beside them. ξ: configuration not given here. ξBip(2'-Et-4'-OMe) = CCc1cc(OC)ccc1-c1ccc(CC(N)C(=O)O)cc1; ξNva(5-(4-Cl-2-MePh)) = Cc1cc(Cl)ccc1CCCC(N)C(=O)O; X1 = O=C(C(CCCc1ccc(C(F)(F)F)cc1F)N[*:1])[*:2]
observed_property: % degradation of peptidomimetics in 24 h when incubated with DPP-IV enzyme
Write the numeric value and follow it with the unit.

Recorded results for 2 molecules are shown here.
molecule="CCc1cc(OC)ccc1-c1ccc(CC(CNC(CCCc2ccccc2)C(N)=O)NC[C@H](CC(=O)O)NC(=O)[C@H](CO)NC(=O)[C@@H](NC(=O)C(C)(Cc2ccccc2F)NC(=O)[C@@H](NC(=O)CNC(=O)[C@H](CCC(N)=O)NC(=O)C(C)(C)NC(=O)[C@@H](N)Cc2c[nH]cn2)[C@H](C)O)[C@H](C)O)cc1 (single isomer, unassigned)" value_reported=00%
molecule="CCc1cc(OC)ccc1-c1ccc(CC(NC(=O)[C@H](CC(=O)O)NC(=O)[C@H](CO)NC(=O)[C@@H](NC(=O)[C@H](Cc2ccccc2)NC(=O)[C@@H](NC(=O)CNC(=O)[C@H](CCC(N)=O)NC(=O)[C@H](CO)NC(=O)[C@@H](N)Cc2c[nH]cn2)[C@@H](C)O)[C@@H](C)O)C(=O)NC(CCCc2ccc(C(F)(F)F)cc2F)C(N)=O)cc1 (stereo partly drawn) [compound 49] (H-HSQGTFTSD[ξBip(2'-Et-4'-OMe)][X1]-NH2)" value_reported=75%

Shift focus to the following entry.
Dear colleague, I am looking for the recorded % degradation of peptidomimetics in 24 h when incubated with DPP-IV enzyme of the following molecule: CCc1cc(OC)ccc1-c1ccc(CC(NC(=O)[C@H](CC(=O)O)NC(=O)[C@H](CO)NC(=O)[C@@H](NC(=O)[C@H](Cc2ccccc2)NC(=O)[C@@H](NC(=O)CNC(=O)[C@H](CCC(N)=O)NC(=O)[C@H](CO)NC(=O)[C@@H](N)Cc2c[nH]cn2)[C@@H](C)O)[C@@H](C)O)C(=O)NC(CCCc2ccc(Cl)cc2C)C(N)=O)cc1 (stereo partly drawn) [compound 8] (H-HSQGTFTSD[ξBip(2'-Et-4'-OMe)][ξNva(5-(4-Cl-2-MePh))]-NH2)
00%
